Hello, the source for this data is ChEMBL document CHEMBL1641454, in case you need it.

Assay: AUC in rat at 5 mg/kg, po
Type: ADME, organism-based
Set-up: dose 5 mg/kg, route oral
Conditions: plasma
measurement-name: AUC

>  <item-smiles>
COc1nc2c(cc1Cc1cccc(Cl)c1F)c(=O)c(C(=O)O)cn2[C@H](CO)C(C)(C)C

>  <measurement-name>
AUC

>  <result>
8500 ng·h/mL

$$$$
>  <item-smiles>
COc1cc2c(cc1Cc1cccc(Cl)c1F)c(=O)c(C(=O)O)cn2[C@H](CO)C(C)C

>  <measurement-name>
AUC

>  <result>
5630 ng·h/mL

$$$$
>  <item-smiles>
COc1nc2c(cc1NCc1c(F)cc(F)cc1F)c(=O)c(C(=O)O)cn2[C@H](CO)C(C)(C)C

>  <measurement-name>
AUC

>  <result>
2890 ng·h/mL

$$$$
>  <item-smiles>
CC(C)(C)[C@@H](CO)n1cc(C(=O)O)c(=O)c2cc(Cc3cccc(Cl)c3F)c(N3CCOCC3)nc21

>  <measurement-name>
AUC

>  <result>
2700 ng·h/mL

$$$$

====

Reported clearance values for a set of compounds
Experiment: Plasma clearance in Beagle dog at 1 mg/kg, iv
Type: ADME, organism-based, Canis lupus familiaris
Parameters: dose 1 mg/kg, route intravenous
measurement-name: clearance (mL/min/kg)

>  <compound>
COc1cc2c(cc1Cc1cccc(Cl)c1F)c(=O)c(C(=O)O)cn2[C@H](CO)C(C)C [ELVITEGRAVIR]

>  <measurement-name>
clearance

>  <uom>
mL/min/kg

>  <quantitative-result>
10

$$$$
>  <compound>
COc1nc2c(cc1NCc1c(F)cc(F)cc1F)c(=O)c(C(=O)O)cn2[C@H](CO)C(C)(C)C

>  <measurement-name>
clearance

>  <uom>
mL/min/kg

>  <quantitative-result>
15.5

$$$$
>  <compound>
CC(C)(C)[C@@H](CO)n1cc(C(=O)O)c(=O)c2cc(Cc3cccc(Cl)c3F)c(N3CCOCC3)nc21

>  <measurement-name>
clearance

>  <uom>
mL/min/kg

>  <quantitative-result>
10

$$$$

====

Assay: Volume of distribution in rat at 2 mg/kg, iv
Type: ADME, organism-based
Parameters: dose 2 mg/kg, route intravenous
Conditions: in vivo
Below is a list of entries, each paired with its recorded Vd value.

>  <item-smiles>
COc1cc2c(cc1Cc1cccc(Cl)c1F)c(=O)c(C(=O)O)cn2[C@H](CO)C(C)C

>  <uom>
L/kg

>  <Vd>
2.74

$$$$
>  <item-smiles>
COc1nc2c(cc1Cc1cccc(Cl)c1F)c(=O)c(C(=O)O)cn2[C@H](CO)C(C)(C)C

>  <uom>
L/kg

>  <Vd>
2.31

$$$$
>  <item-smiles>
CC(C)(C)[C@@H](CO)n1cc(C(=O)O)c(=O)c2cc(Cc3cccc(Cl)c3F)c(N3CCOCC3)nc21

>  <uom>
L/kg

>  <Vd>
4.02

$$$$
>  <item-smiles>
COc1nc2c(cc1NCc1c(F)cc(F)cc1F)c(=O)c(C(=O)O)cn2[C@H](CO)C(C)(C)C

>  <uom>
L/kg

>  <Vd>
4.18

$$$$

====

Assay: Half life in rhesus monkey at 1 mg/kg, iv
Format: ADME, organism-based, Macaca mulatta
Design: dose 1 mg/kg, route intravenous
Settings: in vivo

>  <compound>
COc1nc2c(cc1NCc1c(F)cc(F)cc1F)c(=O)c(C(=O)O)cn2[C@H](CO)C(C)(C)C

>  <half-life>
2.2 h

$$$$
>  <compound>
CC(C)(C)[C@@H](CO)n1cc(C(=O)O)c(=O)c2cc(Cc3cccc(Cl)c3F)c(N3CCOCC3)nc21

>  <half-life>
8.1 h

$$$$
>  <compound>
COc1cc2c(cc1Cc1cccc(Cl)c1F)c(=O)c(C(=O)O)cn2[C@H](CO)C(C)C [ELVITEGRAVIR]

>  <half-life>
3.2 h

$$$$

====

Assay: Plasma clearance in rhesus monkey at 1 mg/kg, iv
Format: ADME, organism-based, Macaca mulatta
Design: dose 1 mg/kg, route intravenous
Listing of recorded clearance by entry.
measurement-name: clearance (mL/min/kg)

>  <molecule>
CC(C)(C)[C@@H](CO)n1cc(C(=O)O)c(=O)c2cc(Cc3cccc(Cl)c3F)c(N3CCOCC3)nc21

>  <measurement-name>
clearance

>  <quantitative-result>
19.7

$$$$
>  <molecule>
COc1cc2c(cc1Cc1cccc(Cl)c1F)c(=O)c(C(=O)O)cn2[C@H](CO)C(C)C [ELVITEGRAVIR]

>  <measurement-name>
clearance

>  <quantitative-result>
7.17

$$$$
>  <molecule>
COc1nc2c(cc1NCc1c(F)cc(F)cc1F)c(=O)c(C(=O)O)cn2[C@H](CO)C(C)(C)C

>  <measurement-name>
clearance

>  <quantitative-result>
44.2

$$$$

====

Assay: Half life in Beagle dog at 1 mg/kg, iv
Format: ADME, organism-based, Canis lupus familiaris
Design: dose 1 mg/kg, route intravenous
Details: in vivo

>  <item-smiles>
COc1nc2c(cc1NCc1c(F)cc(F)cc1F)c(=O)c(C(=O)O)cn2[C@H](CO)C(C)(C)C

>  <uom>
h

>  <half-life>
2

$$$$
>  <item-smiles>
CC(C)(C)[C@@H](CO)n1cc(C(=O)O)c(=O)c2cc(Cc3cccc(Cl)c3F)c(N3CCOCC3)nc21

>  <uom>
h

>  <half-life>
2.6

$$$$
>  <item-smiles>
COc1cc2c(cc1Cc1cccc(Cl)c1F)c(=O)c(C(=O)O)cn2[C@H](CO)C(C)C

>  <uom>
h

>  <half-life>
3.6

$$$$

====

Assay: Plasma clearance in rat at 2 mg/kg, iv
Type: ADME, organism-based
Design: dose 2 mg/kg, route intravenous
# clearance annotations

>  <item-smiles>
COc1nc2c(cc1NCc1c(F)cc(F)cc1F)c(=O)c(C(=O)O)cn2[C@H](CO)C(C)(C)C

>  <clearance / L/h/kg>
0.35

$$$$
>  <item-smiles>
COc1cc2c(cc1Cc1cccc(Cl)c1F)c(=O)c(C(=O)O)cn2[C@H](CO)C(C)C

>  <clearance / L/h/kg>
0.23

$$$$
>  <item-smiles>
CC(C)(C)[C@@H](CO)n1cc(C(=O)O)c(=O)c2cc(Cc3cccc(Cl)c3F)c(N3CCOCC3)nc21

>  <clearance / L/h/kg>
0.42

$$$$
>  <item-smiles>
COc1nc2c(cc1Cc1cccc(Cl)c1F)c(=O)c(C(=O)O)cn2[C@H](CO)C(C)(C)C

>  <clearance / L/h/kg>
0.16

$$$$

====

Test: Metabolic stability in human liver microsome assessed as compound remaining after 30 mins
Assay type: ADME
Details: liver microsomes, read-out: Stability
remaining at 0.5 h values, listed per item
measurement-name: remaining at 0.5 h (%)

>  <item-smiles>
CC(C)(C)[C@@H](CO)n1cc(C(=O)O)c(=O)c2cc(Cc3cccc(Cl)c3F)c(OCCO)nc21

>  <quantitative-result>
45

$$$$
>  <item-smiles>
CC(C)(C)[C@@H](CO)n1cc(C(=O)O)c(=O)c2cc(Cc3cccc(Cl)c3F)c(O)nc21

>  <quantitative-result>
87

$$$$
>  <item-smiles>
CC(C)(C)[C@@H](CO)n1cc(C(=O)O)c(=O)c2cc(Cc3cccc(Cl)c3F)c(N3CCOCC3)nc21

>  <quantitative-result>
97

$$$$
>  <item-smiles>
CC(C)[C@@H](CO)n1cc(C(=O)O)c(=O)c2cc(Cc3cccc(Cl)c3F)cnc21

>  <quantitative-result>
99

$$$$
>  <item-smiles>
CC(C)[C@@H](CO)n1cc(C(=O)O)c(=O)c2cc(Cc3cccc(Cl)c3F)ncc21

>  <quantitative-result>
100

$$$$
